// each record: one item and its MIC for Bacillus subtilis
Answer format: numeric, µg/mL implied, no suffix.

Solved entries:
- molecule: "CC[C@H]1OC(=O)[C@H](C)[C@@H](O[C@H]2C[C@@](C)(OC)[C@@H](O)[C@H](C)O2)[C@H](C)[C@@H](O[C@@H]2O[C@H](C)C[C@H](N(C)C)[C@H]2O)[C@](C)(O)C[C@@H](C)/C(=N\\OCOCCOC)[C@H](C)[C@@H](O)[C@]1(C)O"
  unit of measure: "µg/mL"
  MIC: 0.25
- molecule: "CC[C@H]1OC(=O)[C@H](C)[C@@H](O[C@H]2C[C@@](C)(OC)[C@@H](O)[C@H](C)O2)[C@H](C)[C@@H](O[C@@H]2O[C@H](C)C[C@H](N(C)C)[C@H]2O)[C@](C)(O)C[C@@H](C)C(=O)[C@H](C)[C@@H](O)[C@]1(C)O"
  unit of measure: "µg/mL"
  MIC: 0.25

If you can, please state the reported MIC value of CC[C@H]1OC(=O)[C@H](C)[C@@H](OC2CC(C)(OC)C(OCCCN(C)C)C(C)O2)[C@H](C)[C@@H](OC2OC(C)CC(N(C)C)C2O)[C@](C)(OC)C[C@@H](C)C(=O)[C@H](C)[C@@H](O)[C@]1(C)O (stereo partly shown) .
0.25

Sourced from patent US20110071096A1
